Tested on: oat, wild (wild oat, Avena fatua)
Experiment: Test A postemergence application, visual injury rating 0-100
Format: in vivo
Settings: Postemergence, 31 g ai/ha, greenhouse 10 days; 0 no effect, 100 complete control
Measured Oat, Wild plant response rating (0 to 100 scale) accompanies every entry in the list below.
// return just the number, without any unit appended

Known results for molecules:
molecule	measValue
CCS(=O)(=O)NC(=O)C1C=CC(NC(=O)C2(C)CN(c3cc(F)cc(F)c3)C(=O)O2)C1 (stereo not shown)	80
CC(C)COC(=O)C1C=CC(NC(=O)C2(C)CN(c3cc(Cl)cc(Cl)c3)C(=O)O2)C1 (stereo not shown)	90
CC1(C(=O)NC2C=CC(C(=O)NS(=O)(=O)c3ccccc3)C2)CN(c2cc(F)cc(F)c2)C(=O)O1 (stereo not shown)	90

Okay, next one:
Input line: I would be grateful if you could share the reported Oat, Wild plant response rating (0 to 100 scale) for CCCS(=O)(=O)OC(=O)C1C=CC(NC(=O)C2(C)CN(c3cc(Cl)cc(Cl)c3)C(=O)O2)C1 (mixture of isomers) .
Output line: 90

meta.source: patent US20260285850A1
